Entry source: patent US7226992B1

Biological target: mutant Bcl-2/iso1 protein (Bcl-2/iso1 residues 1-34, Bcl-xL loop residues 29-44, Bcl-2/iso1 residues 92-207; plasmid C) (human)
Test: competitive fluorescence polarization, displacement of a fluorescein-labeled peptide probe from Bcl-2 (340 nM)
pKd: −log10 of the molar value.
assay-readout: pKd

binder="NLWAAQRYGREARRMSDEFVDSFKK [peptide … (SEQ ID NO:33)]" value_measured=5.13
binder="ALWAAQRYGRELRRMSDEFVDSFKK [peptide … (SEQ ID NO:21)]" value_measured=6.68
binder="NLAAAQRYGRELRRMSDEFVDSFKK [peptide … (SEQ ID NO:23)]" value_measured=7.41
binder="NLWAAQRYGRELRRMSDEFVD [peptide … (SEQ ID NO:36)]" value_measured=5.63
binder="NLWAAQRYARELRRMSDEFVAAFKK [peptide … (SEQ ID NO:32)]" value_measured=6.73

I. NLWAAQRYGRELRRMSAEFVDSFKK [peptide … (SEQ ID NO:34)]
II. NLWAGQRYGRELRRMSDEFVDSFKK [peptide … (SEQ ID NO:25)]
Would you let me know which has the greater pKd value, I or II ? Identify your selection by its label.
II
(II: 6.98, I: 6.12)
